# METHOD_DESCRIPTION: Biodistribution in BDL rats with and without excess cold compound
# Assay type: in vivo
# CONDITION_PARAMETERS: male, Sprague Dawley, rat, small and large intestine, iv, total radioactivity, BDL rats, 15 days post-op, 1 hour post-injection, 100-fold excess cold Compound 8; read-out: Activity in Small & Large Intestine, Mean
Numbered stars: 1 amine (or outer) side, 2 acyl side, 3 side chain; on linkers, the order of the positions; unused ones are H or OH. Bridge positions count the residues as written; N and C are the ends. Side chains are listed from the residue outwards. Peptide text beside a SMILES is read from it. * marks the point of attachment. X1 = C/C(=N\O)C(C)(C)NCCC(CCNC(C)(C)/C(C)=N/O)CCN*; Glutaryl = O=C(CCCC(=O)[*:2])[*:1]; X2 = NC(=O)COCC(=O)NCCOCCOCCOCCN*
ENDPOINT_LABEL: tissue uptake dose at 1 h
The reply should read as a number followed by its unit.

Could you share which tissue uptake dose at 1 h value was measured for C/C(=N\O)C(C)(C)NCCC(CCNC(=O)CCCC(=O)NCCCC[C@@H]1NC(=O)CSC[C@@H](C(=O)NCCOCCOCCOCCNC(=O)COCC(N)=O)NC(=O)[C@H](Cc2ccccc2)NC(=O)[C@@H]2CSSC[C@H](NC1=O)C(=O)N[C@@H](CCCNC(=N)N)C(=O)NCC(=O)N[C@@H](CC(=O)O)C(=O)N2)CCNC(C)(C)/C(C)=N/O (stereo partly shown) [Compound 8] ({CH2CO}-K([Glutaryl-X1])CRGDCFC-X2; disulfide 2-6; thioether N-8) ?
7.41 %ID
